Test system: VDR:RXRa (NR concentration 270 nM, RXRa partner concentration 90 nM)
measurementNotes: PBM binding z-score (relative to random genomic background probes); higher = stronger binding; sequences stand for … in GC…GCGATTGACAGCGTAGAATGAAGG
property: PBM binding z-score
Answers are plain numbers.

Solved cases below.
> print(dat)
                         residuecodes  observed
1  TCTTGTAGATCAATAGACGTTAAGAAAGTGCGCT     0.326
2  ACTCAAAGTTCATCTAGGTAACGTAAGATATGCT      4.98
3  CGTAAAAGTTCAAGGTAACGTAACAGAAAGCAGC      3.38

// moving on: another record for PBM binding z-score
For the record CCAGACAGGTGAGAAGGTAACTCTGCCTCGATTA , what value of PBM binding z-score is listed for VDR:RXRa (NR concentration 270 nM, RXRa partner concentration 90 nM)? -0.12

----------
System: PPARg homodimer (NR concentration 180 nM)
measurementNotes: PBM binding z-score (relative to random genomic background probes); higher = stronger binding; sequences stand for … in GC…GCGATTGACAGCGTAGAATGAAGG
property: PBM binding z-score
Numbers only.

Solved cases below.
> print(dat)
                         residuecodes                                targetdesc  observed
1  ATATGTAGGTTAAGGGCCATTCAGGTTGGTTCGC  PPARg homodimer (NR concentration 180 nM)      1.27
2  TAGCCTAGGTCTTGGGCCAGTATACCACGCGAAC  PPARg homodimer (NR concentration 180 nM)   -0.0751
3  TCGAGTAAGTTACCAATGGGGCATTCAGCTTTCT  PPARg homodimer (NR concentration 180 nM)    -0.441
4  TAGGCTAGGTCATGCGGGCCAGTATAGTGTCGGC  PPARg homodimer (NR concentration 180 nM)      1.24
5  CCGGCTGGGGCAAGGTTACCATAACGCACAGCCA  PPARg homodimer (NR concentration 180 nM)    0.0716
6  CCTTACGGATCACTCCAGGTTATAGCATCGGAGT  PPARg homodimer (NR concentration 180 nM)         1

Record PBM binding z-score for all entries; do not skip any.
1. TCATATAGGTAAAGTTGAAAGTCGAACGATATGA
2. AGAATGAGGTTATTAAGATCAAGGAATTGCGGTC

1. 0.5
2. 0.735

Record PBM binding z-score for all entries; do not skip any.
1. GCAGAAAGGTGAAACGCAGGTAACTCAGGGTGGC
2. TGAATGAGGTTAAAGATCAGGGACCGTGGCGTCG
3. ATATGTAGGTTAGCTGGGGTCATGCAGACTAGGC
4. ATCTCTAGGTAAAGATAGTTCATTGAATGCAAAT
5. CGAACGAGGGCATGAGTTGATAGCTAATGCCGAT

1: 0.213; 2: 1.52; 3: 3.23; 4: 0.829; 5: 0.249

----------
Tested on: RARg:RXRa (NR concentration 270 nM, RXRa partner concentration 90 nM)
measurementNotes: PBM binding z-score (relative to random genomic background probes); higher = stronger binding; sequences stand for … in GC…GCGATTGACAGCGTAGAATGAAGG
property: PBM binding z-score
One number for each entry.

Solved cases below.
> print(dat)
                         residuecodes                                targetdesc  observed
1  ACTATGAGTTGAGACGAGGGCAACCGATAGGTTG  RARg:RXRa (NR concentration 270 nM, RXRa partner concentration 90 nM)      1.15
2  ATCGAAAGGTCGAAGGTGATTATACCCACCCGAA  RARg:RXRa (NR concentration 270 nM, RXRa partner concentration 90 nM)      4.11
3  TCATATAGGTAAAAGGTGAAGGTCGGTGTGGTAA  RARg:RXRa (NR concentration 270 nM, RXRa partner concentration 90 nM)      2.21

Record PBM binding z-score for all entries; do not skip any.
1. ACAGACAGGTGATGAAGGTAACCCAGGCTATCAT
2. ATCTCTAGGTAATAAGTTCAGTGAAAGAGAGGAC
3. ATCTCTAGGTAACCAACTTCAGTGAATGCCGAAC

1. 0.398
2. 1.53
3. 0.209

----------
System: PPARg:RXRa 90nM:30nM, anti-RXR (NR concentration 90 nM, RXRa partner concentration 30 nM)
measurementNotes: PBM binding z-score (relative to random genomic background probes); higher = stronger binding; sequences stand for … in GC…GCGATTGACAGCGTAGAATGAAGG
property: PBM binding z-score
One number for each entry.

> print(dat)
                         residuecodes  observed
1  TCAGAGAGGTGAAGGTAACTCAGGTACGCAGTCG      3.09
2  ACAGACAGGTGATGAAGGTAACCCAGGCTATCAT    -0.204
3  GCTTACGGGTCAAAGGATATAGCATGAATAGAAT      5.26
4  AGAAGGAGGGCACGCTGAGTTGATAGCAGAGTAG      1.01
5  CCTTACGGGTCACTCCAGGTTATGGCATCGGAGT      2.67
6  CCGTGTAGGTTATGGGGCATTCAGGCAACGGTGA      3.16
7  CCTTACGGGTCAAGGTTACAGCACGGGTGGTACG      3.87
8  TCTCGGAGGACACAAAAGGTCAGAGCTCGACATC      2.62

Record PBM binding z-score for all entries; do not skip any.
1. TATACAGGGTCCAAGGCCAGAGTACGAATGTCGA
2. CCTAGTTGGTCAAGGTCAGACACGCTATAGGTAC
3. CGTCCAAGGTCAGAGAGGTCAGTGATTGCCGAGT
4. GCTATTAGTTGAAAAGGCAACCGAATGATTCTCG
5. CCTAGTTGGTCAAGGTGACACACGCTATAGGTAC

0.795
1.73
2.55
0.651
1.32

Record PBM binding z-score for all entries; do not skip any.
1. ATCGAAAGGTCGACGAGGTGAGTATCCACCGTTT
2. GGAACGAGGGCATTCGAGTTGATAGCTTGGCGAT
3. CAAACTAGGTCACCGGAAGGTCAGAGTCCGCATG
4. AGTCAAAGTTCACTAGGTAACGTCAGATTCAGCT
5. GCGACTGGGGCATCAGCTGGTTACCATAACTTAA

1. 2.21
2. 0.275
3. 7.33
4. 5.98
5. 0.127

----------
Tested on: LXRa:RXRa (NR concentration 270 nM, RXRa partner concentration 90 nM)
measurementNotes: PBM binding z-score (relative to random genomic background probes); higher = stronger binding; sequences stand for … in GC…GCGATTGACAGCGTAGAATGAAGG
Class 1: PBM binding z-score at least 0.6. Class -1: PBM binding z-score below 0.6.

Illustrative cases are given below, each with its answer.
> print(dat)
                         residuecodes  group
1  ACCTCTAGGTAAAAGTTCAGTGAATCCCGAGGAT      1
2  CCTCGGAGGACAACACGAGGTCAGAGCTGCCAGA      1
3  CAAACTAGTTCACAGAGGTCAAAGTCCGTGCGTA      1
4  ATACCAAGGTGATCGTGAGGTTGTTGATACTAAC     -1
5  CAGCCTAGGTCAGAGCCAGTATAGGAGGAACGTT      1

Please tell me: is the sequence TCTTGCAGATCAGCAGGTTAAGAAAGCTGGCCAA at or over 0.6 in terms of PBM binding z-score? -1

Repeat with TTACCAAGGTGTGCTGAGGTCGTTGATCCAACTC -1

Repeat with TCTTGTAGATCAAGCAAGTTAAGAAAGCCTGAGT -1

Repeat with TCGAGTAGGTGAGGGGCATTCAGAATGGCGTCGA -1

----------
Test system: LXRb:RXRa (NR concentration 270 nM, RXRa partner concentration 90 nM)
measurementNotes: PBM binding z-score (relative to random genomic background probes); higher = stronger binding; sequences stand for … in GC…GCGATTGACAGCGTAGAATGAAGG
Exercise: for every item that follows, state its recorded PBM binding z-score.
Give bare numbers.

Solved cases below.
> print(dat)
                         residuecodes             property  observed
1  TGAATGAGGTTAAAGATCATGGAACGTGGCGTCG  PBM binding z-score      1.93
2  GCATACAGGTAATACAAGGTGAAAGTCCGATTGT  PBM binding z-score     0.711
3  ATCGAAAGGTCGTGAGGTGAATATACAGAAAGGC  PBM binding z-score      3.66
4  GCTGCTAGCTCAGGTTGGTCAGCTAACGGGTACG  PBM binding z-score    -0.935
5  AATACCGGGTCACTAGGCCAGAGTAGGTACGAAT  PBM binding z-score      2.69

Record PBM binding z-score for all entries; do not skip any.
1. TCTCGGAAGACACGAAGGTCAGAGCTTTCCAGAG
2. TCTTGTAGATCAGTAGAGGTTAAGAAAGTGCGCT
3. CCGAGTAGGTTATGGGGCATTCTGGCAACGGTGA
4. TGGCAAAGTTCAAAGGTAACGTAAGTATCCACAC
5. ATCTCTAGGTAAACGTTCAGTGAATCCCGAGGAT
6. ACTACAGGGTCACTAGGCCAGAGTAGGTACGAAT

1: 0.74; 2: 1.64; 3: 0.625; 4: 4.49; 5: -0.282; 6: 3.18

Record PBM binding z-score for all entries; do not skip any.
1. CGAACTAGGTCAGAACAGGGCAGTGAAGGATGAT
2. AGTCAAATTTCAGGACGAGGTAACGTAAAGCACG
3. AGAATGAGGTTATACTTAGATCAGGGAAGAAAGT
4. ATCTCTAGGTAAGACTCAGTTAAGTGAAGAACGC
5. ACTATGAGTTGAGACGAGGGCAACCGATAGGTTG
6. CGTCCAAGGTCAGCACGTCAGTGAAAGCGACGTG
7. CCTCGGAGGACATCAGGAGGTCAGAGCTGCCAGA
8. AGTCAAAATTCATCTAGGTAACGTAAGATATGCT

0.436
0.0191
1.58
0.191
0.311
2.37
1.17
-0.0959
